Test system: CEM-SS cells
Measured Parameter: CC50

1) Cc1cn([C@H]2C[C@H](N=[N+]=[N-])[C@@H](CO)O2)c(=O)[nH]c1=O    > 1000 nM

====

System: herpes simplex virus type 1 (HSV-1) strain HF
Assay Summary: Virus induced cytopathic effects (CPE) inhibition assay in Vero cells (MTS)
Format: cell-based
Run Conditions: Human alphaherpesvirus 1, Vero, read-out: Ic50 against HSV-1 virus
pIC50: −log10 of the molar value.
Measured Parameter: pIC50

1. Nc1nc2c(ncn2COCCO)c(=O)[nH]1    5.57

====

Assay Summary: Drug cytotoxicity in Vero cells (MTS), HSV-1 assay
Format: cell-based
Run Conditions: African green monkey
Measured Parameter: CC50 at 5 day

1. Nc1nc2c(ncn2COCCO)c(=O)[nH]1    > 10 mg/L
